This collection of values is drawn from PubChem BioAssay (NCI).

# System: NCI-H322M lung
# Protocol notes: NCI-60 one-dose screen, 48 h
# Run conditions: 10 µM unless noted
# Experimental: Growth inhibition of the NCI-H322M human Non-Small Cell Lung tumor cell line is measured as a screen for anti-cancer activity. Cells are grown in 96 well plates and exposed to the test compound for 48 hours. Compounds are tested at a single concentration, which is 10^-5 M for most compounds. The reported endpoint is percent growth (GI% or GIPRCNT), where numbers from 0 - 100% represent growth inhibition, and numbers from -100% - 0 represent cell death. […]
Compounds without any hit were thinned out: in the full panel of roughly 83,000, 20% have a hit. Activity calls are given as the source filed them. How the source made its calls: active means growth percent below 10; inactive means the rest.
In this exercise, the only acceptable responses are yes for active, no for inactive

Reference set (5 entries):
O=C(Nc1cc(Br)ccn1)c1cc2cc(Nc3nc(-c4ccccc4)nc4ccccc34)ccc2oc1=O	no
O=C(O)c1cn(C2CC2)c2cc(N3CCN(Cc4nnc(Nc5ccccc5)o4)CC3)c(F)cc2c1=O	no
Nc1c(C(=O)c2ccccc2)sc2nc(-c3cc4ccccc4o3)cc(-c3ccc(Cl)cc3)c12	no
NC[C@@H]1CCN(c2cc3c(cc2F)c(=O)n(N)c(=O)n3Cc2ccc(-c3ccccc3)cc2)C1	no
COc1ccc(-c2cc(-c3nnc(SCC(=O)Nc4ccc(/C(C)=N\O)cc4)n3-c3ccccc3)c3cc(OC)ccc3n2)cc1	no

Input: Check the results log: what was the call for CC(=O)c1cc2c(N)c(C(=O)Nc3ccccn3)sc2nc1C ?
Output: no

Input: Lookup N#Cc1c(-c2ccc(F)cc2)nc(N=Nc2c(O)[nH]c3ccc(Cl)cc23)nc1N1CCOCC1
Output: no

Input: Same lookup for Cc1ccc2nc3nc4ccc[nH]c4cc3c2c1 , please.
Output: no

Input: // same read-out, input: C=C1C(=O)O[C@H]2[C@H]1CC/C(C=Nc1c(N)cc(F)cc1Br)=C\CC[C@@]1(C)O[C@@H]21
Output: no

Input: Also check C#CCOC(=O)[C@]1(C)CCC[C@]2(C)[C@H]3C[C@H]4C(C(C)C)=C[C@]3(CC[C@H]21)[C@@H]1C(=O)CCC(=O)[C@@H]14
Output: no

* * *

# System: A498 renal
# Protocol notes: NCI-60 one-dose screen, 48 h (100 = growth as untreated, 0 = no growth, -100 = all killed)
# Run conditions: 10 µM unless noted
The panel holds about 83,000 compounds, 20% with a hit somewhere; the sample as a whole holds those more often.
The class of a record is decided solely by its measured growth; consult low range = under 40%, mid range = from 40% up to 90%, high range = 90% and over

The following compounds have reported results that may help.
O=C(CN1N=C(c2ccc(F)cc2)CCC1=O)Nc1nccs1	mid range
COc1cc(/C=C/C(=O)c2cccs2)ccc1OCc1ccc(Cl)nc1	high range
C#C[C@@]1(O)[C@@H](CO)O[C@@H](n2ccc3c(N)ncnc32)[C@@H]1O	low range
C=C(C)[C@@H]1CC[C@]2(C(=O)OCCOCCOCC[P+](c3ccccc3)(c3ccccc3)c3ccccc3)CC[C@]3(C)[C@H](CC[C@@H]4[C@@]5(C)CC[C@H](OC(C)=O)C(C)(C)[C@@H]5CC[C@]43C)[C@@H]12	low range
C=C(C)[C@@H]1CC[C@]2(C(=O)O)CC[C@]3(C)[C@H](CC[C@@H]4[C@@]5(C)C[C@@H](CC#Cc6ccc(Cl)cc6)C(=O)C(C)(C)[C@@H]5CC[C@]43C)[C@@H]12	low range
C=C(C)[C@@H]1CC[C@]2(C(=O)N3CCN(C)CC3)CC[C@]3(C)[C@H](CC[C@@H]4[C@@]5(C)C/C(=C/c6ccco6)C(=O)C(C)(C)[C@@H]5CC[C@]43C)[C@@H]12	high range

Input: Each compound maps to one class by growth. Which class for CC(C)C[C@H](C(=O)O)N(C)C(=O)[C@@H]1CCCN1C(=O)[C@H](C)OC(=O)[C@H](CCC(N)=O)NC(=O)[C@@H]1CCC(=O)N1 ?
Output: high range

Input: Proceed to Cc1cc(C)c2nc(Nc3nc(C)c(C)c(=O)[nH]3)nc(C)c2c1
Output: low range

Input: What do we get for CC1(c2ccccc2Cl)NC(=O)NC1=O (stereo unspecified) ?
Output: high range

Input: Check COc1ccc(NC(=O)Nc2ccc(Nc3nc(C)cc(Nc4ccc(C)cc4)n3)cc2)cc1 too.
Output: high range

Input: Record: O=c1cc(/C=N\Nc2nc(-c3ccc(Cl)cc3Cl)cs2)c2cc(Cl)ccc2o1
Output: high range

Input: Thanks! And CNCc1cccc2c1OCCOCCOCCN(CCN1CCOCC1)S(=O)(=O)c1ccc(cc1)-c1cnc(N)c(n1)C(=O)N2 ?
Output: mid range

Input: Item: CC1CCN(CCCCCOc2ccc3oc4ccccc4c(=O)c3c2)CC1
Output: mid range

Input: How about this compound: C[C@@H]1C(=O)[C@@H]2C[C@@H](O)[C@@H](O)C[C@]2(C)[C@H]2CC[C@@]3(C)C(=C12)CC[C@@H]3[C@@](C)(O)[C@H](O)CCC(C)(C)O
Output: mid range

Input: Do the same for COc1cccc2c1-c1ccccc1C2=O please
Output: low range

* * *

# Tested on: ACHN renal
# Protocol notes: NCI-60 one-dose screen, 48 h (100 = growth as untreated, 0 = no growth, -100 = all killed)
# Run conditions: 10 µM unless noted
This is part of a sample that, as a whole, favours compounds with a hit. Of some 83,000 tested, about 20% had one in any assay.
Reported metric: growth (%)
Answer format: numeric, % implied, no suffix.

Below, 4 molecules whose answers are already recorded.
Nc1c(C(=O)Nc2ccccc2)sc2nc3c(cc12)CN(C(=O)OCc1ccccc1)CC3	60.2
O=C(CCCCCCCCC(=O)Nc1cccc(C2=NCCN2)c1)Nc1cccc(C2=NCCN2)c1	112
Cc1ccc(C2CC(c3ccc(Nc4nc(NCCO)nc(NCCO)n4)cc3)=NN2c2ccc(Cl)cc2)cc1 (stereo not given)	52.2
Cc1ccc(C2=N[C@H]3CCC[C@@H]3N(c3ccccc3)C(C(Cl)Cl)=N2)cc1	98

Then this molecule:
Input: # query: growth of entry CC(=O)ON1CCCC(P(=O)(OCOC(=O)C(C)(C)C)OCOC(=O)C(C)(C)C)C1=O (stereo not given)
Output: 6.57

* * *

# System: EKVX NSCLC
# Protocol notes: NCI-60 one-dose screen, 48 h
# Run conditions: 10 µM unless noted
# Method: Growth inhibition of the EKVX human Non-Small Cell Lung tumor cell line is measured as a screen for anti-cancer activity. Cells are grown in 96 well plates and exposed to the test compound for 48 hours. Compounds are tested at a single concentration, which is 10^-5 M for most compounds. The reported endpoint is percent growth (GI% or GIPRCNT), where numbers from 0 - 100% represent growth inhibition, and numbers from -100% - 0 represent cell death. […]
The panel holds about 83,000 compounds, 20% with a hit somewhere; the sample as a whole holds those more often. Activity calls are given as the source filed them. How the source made its calls: active means growth percent below 10; inactive means the rest.
The reply should name one outcome from active, inactive

These solved cases illustrate the format of a correct answer.
O=C(/C(=C/c1ccc([N+](=O)[O-])cc1)SCc1ccc(Cl)cc1)c1ccc(F)cc1	inactive
COc1cccc(NC(=O)Nc2ccc(Oc3ncnc4[nH]c(C)c(C)c34)cc2)c1	inactive
O=CN1N=C(c2ccc(Cl)cc2)CC1c1cccc(Nc2ccnc3cc(C(F)(F)F)ccc23)c1 (stereo not given)	inactive
COCCc1n(Cc2ccc3ccccc3c2)c2ccccc2[n+]1Cc1ccc2ccccc2c1	active
COc1ccc(C2=NN(c3ccc(S(N)(=O)=O)cc3)C(c3ccc(Cl)cc3)C2)c(O)c1 (stereo not given)	inactive

Next, consider the following molecule.
Input: Could you please tell me the result logged for C#C[C@@]1(O)[C@@H](CO)O[C@@H](n2cnc3c(-c4ccccc4)ncnc32)[C@@H]1O in this assay?
Output: inactive

* * *

# System: RXF 393 renal
# Protocol notes: NCI-60 one-dose screen, 48 h (100 = growth as untreated, 0 = no growth, -100 = all killed)
# Run conditions: 10 µM unless noted
Compounds without any hit were thinned out: in the full panel of roughly 83,000, 20% have a hit.
I would appreciate it if you labelled entries true (1) when growth is -20% or higher, otherwise false (0).

Consider the following illustrative entries.
CCCCn1c(=O)c(/C=C/C(=O)/C=C/c2ccc(O)c(OC)c2)cc2ccc(Cl)cc21	true (1)
COc1ccc(/C(=N\O)c2cc(C)c(OC)c(C)c2)cc1O	true (1)
C=C1C(=O)O[C@H]2[C@H]1CC/C(COC(=O)NCc1nc3ccccc3[nH]1)=C\CC[C@@]1(C)O[C@@H]21	true (1)
Fc1ccc(N/N=C/c2ccc(-n3cccn3)cc2)cc1	true (1)

Pending molecule:
Input: Is reported growth greater than or equal to -20% here: CCOC(=O)c1c(C)nc2c(c1N)/C(=C/c1ccccn1)C(=O)N2Cc1ccccc1
Output: false (0)
